Test system: ATP;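 note: ATP exposure 15 min at 22 °C before imaging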
method.notes: switch fluorescence ratio, 500 uM ATP over buffer (Cy3 cluster intensity, sum of 5 cycles each) (fold (ratio)); higher = stronger signal-on switching upon ATP binding; sequences stand for … in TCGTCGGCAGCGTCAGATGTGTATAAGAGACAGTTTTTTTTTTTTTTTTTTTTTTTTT…TC
condition.description: aptamer strand: ATP DNA aptamer (quencher-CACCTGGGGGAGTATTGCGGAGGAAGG + anchor), 100 nM annealed; ATP concentration: 500 uM
Measured switch fluorescence ratio by item
parameter.measured: switch fluorescence ratio

>>> experimental_value("TTAGCATAAA")
1.04
>>> experimental_value("GGGGGGTCTC")
0.996
>>> experimental_value("TTCGAGCCGA")
1.03
>>> experimental_value("TAAAGTAAGT")
1.01
>>> experimental_value("ACTGGAGGTG")
1.07
>>> experimental_value("TTTTAGGTAT")
1.02
>>> experimental_value("ATGGGGAATG")
0.984
>>> experimental_value("TATTTATCTG")
1.02
>>> experimental_value("GAGATTTATT")
0.985
>>> experimental_value("TTTTGAGTTA")
0.976
>>> experimental_value("AGAGCAAGGT")
1.08
>>> experimental_value("AAGTTTATCT")
0.989
>>> experimental_value("GACCATTGTT")
1.01
>>> experimental_value("GGTTTTAAGT")
1.01
>>> experimental_value("CGGATGGGAA")
0.995
>>> experimental_value("TTTCTTGGGG")
0.979
>>> experimental_value("ACCAGCTTTT")
1.04
>>> experimental_value("CATTAAAGAT")
1.01
>>> experimental_value("TTTGGGGCCC")
1.03
>>> experimental_value("TAGTAGGGCA")
1.01
>>> experimental_value("TTATTATGGA")
1.02
>>> experimental_value("TCTGGTTTTG")
0.984
>>> experimental_value("GACTTTGGAG")
1
>>> experimental_value("GCATAGGGAA")
1
>>> experimental_value("TGGGGGAGAT")
1.04
>>> experimental_value("GGCCGGGGTA")
1
>>> experimental_value("TATTAGTACT")
0.989
>>> experimental_value("GGGGTTTTCC")
1.01
>>> experimental_value("ATCATAAGTT")
1.01
>>> experimental_value("AAGGTTCCTG")
0.98
>>> experimental_value("AGTTCAGTAT")
0.983
>>> experimental_value("AGGAATCGGG")
0.993
>>> experimental_value("GGTATTTGGT")
0.988
>>> experimental_value("GTATTGCTTT")
0.963
>>> experimental_value("ACCTGATCGT")
1.09
>>> experimental_value("GATTGTTTGT")
1.03
>>> experimental_value("CAGGGGAGGG")
1.06
>>> experimental_value("TATAACGCGC")
1.11
>>> experimental_value("AATGCGGGGG")
1
>>> experimental_value("GATTGGTGTG")
0.997
>>> experimental_value("GTAGGAGGGA")
1.05
>>> experimental_value("AATCGTGGTG")
0.982
>>> experimental_value("TGGTATAATC")
1
>>> experimental_value("AGAGGGGAGT")
1.02
>>> experimental_value("GTGGGGGCGC")
1.04
>>> experimental_value("TTTAAAGTGA")
1
>>> experimental_value("ATCCGTGAGA")
1.05
>>> experimental_value("CGCGGGGCAC")
1.06
>>> experimental_value("ATGACGGGGT")
1.05
>>> experimental_value("TTTATGGCCC")
1.01
>>> experimental_value("CGAAAGAAAT")
1.02
>>> experimental_value("TGGGTCGGGG")
0.985
>>> experimental_value("GTATGATGTG")
0.991
>>> experimental_value("ACAGGGGGAA")
1.01
>>> experimental_value("GACTTGGGAT")
1.03
>>> experimental_value("GGGATAGGCC")
1.02
>>> experimental_value("GGGGACCAAC")
1.03
>>> experimental_value("TTTATCTTCC")
2.41
>>> experimental_value("TTGGACGGGG")
1.07
>>> experimental_value("GGTTTGCGCT")
1
>>> experimental_value("AATTAGATTT")
1.02
>>> experimental_value("ATTAAATGAG")
1.01
>>> experimental_value("TGGGGAACAC")
0.995
>>> experimental_value("GAGAATCGGA")
0.965
>>> experimental_value("CAAAATTGGG")
0.956
>>> experimental_value("CGTATGCAGT")
1.01
>>> experimental_value("GTGTCCGTGG")
1
>>> experimental_value("TTGGGGCCGA")
0.956
